# testSystem: HUMgal (Mycoplasmoides gallisepticum)
# Sequence (A0A0F6CKR5 entry or part of it): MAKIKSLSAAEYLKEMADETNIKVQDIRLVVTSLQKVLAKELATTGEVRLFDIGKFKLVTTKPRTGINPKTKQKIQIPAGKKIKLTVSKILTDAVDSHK
# methodNotes: EMSA, inhibition of HUMgal DNA binding
# Design: species or system Mycoplasma gallisepticum
# experimentalSetup: EMSA with DS24a; average ± SD from three runs; read-out: IC50, inhibition of HUMgal DNA-binding
propertyMeasured: IC50 (µM)
Give the quantity in µM, number only.

1. O=C(O)c1cccc(C(=O)Oc2ccc(C3(c4ccc(OC(=O)c5cccc(C(=O)O)c5)cc4)c4ccccc4-c4ccccc43)cc2)c1 | 8.1

From here, focus on the item given below.
input: If you can, please state the reported IC50 value of `O=C(Oc1ccc(C2(c3ccc(OC(=O)c4ccc(C(=O)O)c(C(=O)O)c4)cc3)c3ccccc3-c3ccccc32)cc1)c1ccc(C(=O)O)c(C(=O)O)c1` .
output: 5

* * *

# System: HUSpm (Spiroplasma melliferum), PDB:5L8Z_1
# methodNotes: EMSA
# experimentalSetup: EMSA: 20 mM Tris-HCl pH 8.0, 150 mM NaCl, 7% glycerol, 10 nM DNA, 10 min, temperature not stated; NMR: 50 mM sodium phosphate pH 7.2, 0.1 mM NaN3, 30 C
propertyMeasured: pKd
Lab note: report pKd as minus log10 of the concentration in molar units, number only.

Solved entries:
1. AGTCTAGAGTGCAGTTGAGTCCTTGCTACGACGGATCCCTTAGGTCAG / AAGGACTCAACTGCACTCTAGACT / CTGACCTAAGGGATCCGTCGTAG [Nick (N)] | 8.28
2. AGTCTAGAGTGCAGTTGAGTCCTTGCTACGACGGATCCCTTAGGTCAG / CTGACCTAAGGGATCCGTCGTAGCAAGAGACTCAACTGCACTCTAGACT [A1 bulge (A1)] | 8.60
3. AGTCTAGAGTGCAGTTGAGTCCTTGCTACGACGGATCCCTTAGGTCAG / CTGACCTAAGGGATCCGTCGTAGCAAGAAAAAAAGACTCAACTGCACTCTAGACT [A7 bulge (A7)] | 8.70
4. AGTCTAGAGTGCAAGTTGAGTCCTT / AAGGACTCAACTGCACTCTAGACT [DS24a (24a)] | 8.59

input: Which pKd value belongs to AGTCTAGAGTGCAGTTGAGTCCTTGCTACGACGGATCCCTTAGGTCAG (double strand) [DS48 (48)] ?
output: 7.73

* * *

# testSystem: HUSpm (Spiroplasma melliferum)
# methodNotes: biochemical
# Assay type: binding
# experimentalSetup: EMSA with DS48 duplex; average±SD, n=3; read-out: IC50, half-maximal inhibitory concentration of HUSpm-DNA complex formation
propertyMeasured: pIC50
When answering, recall that pIC50 equals minus log10 of the concentration in mol/L, and write that number alone.

input: If you can, please state the reported pIC50 value of `O=C(Oc1ccc(C2(c3ccc(OC(=O)c4ccc(C(=O)O)c(C(=O)O)c4)cc3)c3ccccc3-c3ccccc32)cc1)c1ccc(C(=O)O)c(C(=O)O)c1` .
output: 5.19
